Experiment: log P by HPLC on a reversed-phase column (C 18), EEC Directive 79/831 Annex V.A8
Assay type: physicochemical
Details: HPLC on reversed-phase column (C 18), 40° C., 0.1% aqueous formic acid and acetonitrile, linear gradient 10% to 90% acetonitrile
Examples of molecules with documented logP follow.

| Molecule | logP |
| --- | --- |
| Cn1nc(C(F)F)c(C(=O)N(Cc2cc(-c3ccsc3)ccc2Cl)C2CC2)c1F | 3.96 |
| Cn1nc(C(F)F)c(C(=O)N(Cc2cc(-c3ccc(Cl)s3)ccc2Cl)C2CC2)c1F | 4.83 |
| Cn1nc(C(F)F)c(C(=O)N(Cc2ccccc2-c2ccco2)C2CC2)c1Cl | 3.46 |
| Cc1ccc(-c2cscc2C)c(CN(C(=O)c2c(C(F)F)nn(C)c2Cl)C2CC2)c1 | 4.41 |
| Cn1ccc(-c2ccc(F)cc2CN(C(=O)c2c(C(F)F)nn(C)c2F)C2CC2)c1 | 3.37 |
| Cn1nc(C(F)F)c(C(=O)N(Cc2ccccc2C2(C)OCCO2)C2CC2)c1F | 2.94 |
| Cn1nc(C(F)F)c(C(=O)N(Cc2c(C3(C)CO3)ccc(Cl)c2F)C2CC2)c1F (stereo not drawn) | 3.29 |
| Cn1nc(C(F)F)c(C(=O)N(Cc2cc(Cl)ccc2-c2cccs2)C2CC2)c1F | 4.11 |
| Cc1cc(C(=O)N(Cc2cc(-c3ccc(Cl)s3)ccc2Cl)C2CC2)c(C)o1 | 5.54 |

* * *

Test system: Septoria tritici
Test: In vivo preventive test on Septoria tritici (wheat)
Conditions: 500 ppm of active ingredient; wheat plants; 24 days after contamination
Outcome measure: Efficacy (%)

| Compound structure | Target desc | Outcome measure | Units text | Assay value |
| --- | --- | --- | --- | --- |
| Cn1nc(C(F)F)c(C(=O)N(Cc2ccc(F)cc2-c2csc3ccccc23)C2CC2)c1F | Septoria tritici | Efficacy | % | 98 |
| Cn1nc(C(F)F)c(C(=O)N(Cc2cc(F)ccc2-c2ccsc2Cl)C2CC2)c1F | Septoria tritici | Efficacy | % | 93 |
| Cn1cc(-c2ccccc2CN(C(=O)c2c(C(F)F)nn(C)c2F)C2CC2)cn1 | Septoria tritici | Efficacy | % | 100 |
| Cn1cc(C(=O)N(Cc2ccccc2-c2ccsc2)C2CC2)c(C(F)F)n1 | Septoria tritici | Efficacy | % | 86 |
| Cn1nc(C(F)F)c(C(=S)N(Cc2ccccc2-c2cccs2)C2CC2)c1F | Septoria tritici | Efficacy | % | 86 |
| Cn1nc(C(F)F)c(C(=O)N(Cc2cc(-c3ccc(Cl)s3)ccc2Cl)C2CC2)c1Cl | Septoria tritici | Efficacy | % | 94 |
| CC(C)c1ccc(-c2coc3ccccc23)cc1CN(C(=O)c1c(C(F)F)nn(C)c1F)C1CC1 | Septoria tritici | Efficacy | % | 100 |
| Cn1nc(C(F)F)c(C(=O)N(Cc2ccccc2Oc2nc(Cl)cc(Cl)n2)C2CC2)c1F | Septoria tritici | Efficacy | % | 80 |
| Cn1nc(C(F)F)c(C(=O)N(Cc2cc(Cl)ccc2-c2cccs2)C2CC2)c1F | Septoria tritici | Efficacy | % | 83 |

* * *

Test system: Uromyces appendiculatus
Assay: In vivo preventive test on Uromyces appendiculatus (bean rust)
Settings: 100 ppm of active ingredient; bean plants; 11 days after contamination

| Compound | Efficacy (%) |
| --- | --- |
| Cc1ccc(-c2coc3ccccc23)c(CN(C(=O)c2c(C(F)F)nn(C)c2F)C2CC2)c1 | 77 |
| Cn1nc(C(F)F)c(C(=O)N(Cc2cc(F)ccc2C2(C)CO2)C2CC2)c1F (stereo not shown) | 100 |
| CC1=NOC(C)(c2ccc(C)cc2CN(C(=O)c2c(C(F)F)nn(C)c2F)C2CC2)C1 (stereo not shown) | 100 |
| Cn1nc(C(F)F)c(C(=O)N(Cc2cc(-c3ccc(Cl)s3)ccc2Cl)C2CC2)c1F | 93 |
| Cn1nc(C(F)F)c(C(=O)N(Cc2cc(F)ccc2C2(C)CO2)C2CC2)c1Cl (stereo not shown) | 95 |
| Cc1ccc(-c2csc3ccccc23)c(CN(C(=O)c2c(C(F)F)nn(C)c2F)C2CC2)c1 | 77 |
| Cn1cc(C(=O)N(Cc2cc(F)ccc2C2(C)CO2)C2CC2)c(C(F)F)n1 (stereo not shown) | 73 |
| Cc1ccc(-c2ccoc2)c(CN(C(=O)c2c(C(F)F)nn(C)c2Cl)C2CC2)c1 | 83 |
| Cn1nc(C(F)F)c(C(=O)N(Cc2ccccc2-c2ccco2)C2CC2)c1F | 74 |
| Cn1nc(C(F)F)c(C(=O)N(Cc2cc(-c3cccs3)ccc2Cl)C2CC2)c1F | 80 |

* * *

System: Botrytis cinerea
Assay: In vivo preventive test on Botrytis cinerea (grey mould)
Conditions: 100 ppm of active ingredient; gherkin plants; 4 to 5 days after contamination
Use Yes when the recorded Efficacy is no lower than 90%; use No when it is lower.

| Compound structure | Assigned category |
| --- | --- |
| Cn1nc(C(F)F)c(C(=O)N(Cc2cc(-c3ccco3)ccc2Cl)C2CC2)c1F | Yes |
| Cn1cc(C(=O)N(Cc2cc(-c3cccs3)ccc2Cl)C2CC2)c(C(F)F)n1 | Yes |
| COc1ccsc1-c1ccc(C)cc1CN(C(=O)c1c(C(F)F)nn(C)c1F)C1CC1 | No |
| Cn1nc(C(F)F)c(C(=O)N(Cc2cc(-c3ccco3)ccc2Cl)C2CC2)c1Cl | Yes |
| Cn1cc(C(=O)N(Cc2ccccc2-c2ccco2)C2CC2)c(C(F)F)n1 | No |

* * *

Below is a list of entries, each paired with its recorded Efficacy value.
Tested on: Venturia inaequalis
Assay: In vivo preventive test on Venturia inaequalis (apples)
Conditions: 100 ppm of active ingredient, evaluated 10 days after inoculation

| Molecule | Units text | Efficacy |
| --- | --- | --- |
| Cn1nc(C(F)F)c(C(=O)N(Cc2ccccc2-c2ccc(Cl)s2)C2CC2)c1F [I.139] | % | 100 |
| CC(C)c1ccc(-c2csc3ccccc23)cc1CN(C(=O)c1c(C(F)F)nn(C)c1F)C1CC1 [I.157] | % | 100 |
| Cn1nc(C(F)F)c(C(=O)N(Cc2cc(Cl)ccc2C2(C)CO2)C2CC2)c1F (stereo not shown) [I.4] | % | 100 |
| Cn1nc(C(F)F)c(C(=O)N(Cc2ccccc2C2(C)CO2)C2CC2)c1F (stereo not shown) [I.3] | % | 96 |

* * *

Test system: Leptosphaeria nodorum
Assay: In vivo preventive test on Leptosphaeria nodorum (wheat)
Details: 500 ppm of active ingredient, evaluated 8 days after inoculation

| Molecule | Efficacy (%) |
| --- | --- |
| Cc1csc(-c2ccccc2CN(C(=O)c2c(C(F)F)nn(C)c2F)C2CC2)c1 | 83 |
| Cn1nc(C(F)F)c(C(=O)N(Cc2cc(Cl)ccc2C2(C)CO2)C2CC2)c1F (stereo not shown) | 80 |
| CC(C)c1ccc(-c2csc3ccccc23)cc1CN(C(=O)c1c(C(F)F)nn(C)c1F)C1CC1 | 100 |
| Cn1nc(C(F)F)c(C(=O)N(Cc2ccccc2C2(C)CO2)C2CC2)c1F (stereo not shown) | 92 |

* * *

Tested on: Botrytis cinerea
Assay: In vivo preventive test on Botrytis cinerea (grey mould)
Conditions: 100 ppm of active ingredient; gherkin plants; 4 to 5 days after contamination
Procedure: In Vivo Preventive Test on Botrytis cinerea (Grey Mould) […] Gherkin plants (“Vert petit de Paris” variety), sown in starter cups on a 50/50 peat soil pozzolana substrate and grown at 24° C., are treated at the Z11 cotyledon stage by spraying with the active ingredient prepared as described above. Plants, used as controls, are treated with the mixture of acetone/tween/DMSO/water not containing the active material. […]

| Molecule | Efficacy |
| --- | --- |
| Cn1nc(C(F)F)c(C(=O)N(Cc2ccccc2-c2ccco2)C2CC2)c1F [I.32] | 94% |
| Cc1ccc(-c2cscc2C)c(CN(C(=O)c2c(C(F)F)nn(C)c2F)C2CC2)c1 [I.108] | 100% |
| Cc1ccc(-c2ccsc2Cl)c(CN(C(=O)c2c(C(F)F)nn(C)c2F)C2CC2)c1 [I.150] | 90% |
| Cc1ccc(-c2cnn(C)c2)c(CN(C(=O)c2cn(C)nc2C(F)F)C2CC2)c1 [I.59] | 81% |
| CC(c1ccccc1-c1ccsc1)N(C(=O)c1c(C(F)F)nn(C)c1F)C1CC1 (stereo not drawn) [I.82] | 97% |
| Cn1nc(C(F)F)c(C(=O)N(Cc2cc(-c3ccc(Cl)s3)ccc2Cl)C2CC2)c1Cl [I.145] | 100% |

* * *

Test: log P by HPLC on a reversed-phase column (C 18), EEC Directive 79/831 Annex V.A8
Assay type: physicochemical
Details: HPLC on reversed-phase column (C 18), 40° C., 0.1% aqueous formic acid and acetonitrile, linear gradient 10% to 90% acetonitrile
Define the label as 1.0 when logP is strictly less than 4 and as 0.0 in all remaining cases.

| Molecule | Assigned category |
| --- | --- |
| Cn1nc(C(F)F)c(C(=O)N(Cc2cc(Cl)ccc2C23CCCCCC2O3)C2CC2)c1F (centres unmarked) | 0.0 |
| Cn1nc(C(F)F)c(C(=S)N(Cc2ccccc2-c2cccs2)C2CC2)c1F | 0.0 |
| Cc1ccc(-c2c(C)nn(C)c2C)c(CN(C(=O)c2c(C(F)F)nn(C)c2F)C2CC2)c1 | 1.0 |
| Cc1ccc(-c2ccsc2Cl)c(CN(C(=O)c2c(C(F)F)nn(C)c2F)C2CC2)c1 | 0.0 |
| Cn1nc(C(F)F)c(C(=O)N(Cc2ccccc2C2COC2)C2CC2)c1F | 1.0 |
| COc1ccsc1-c1cc(Cl)ccc1CN(C(=O)c1c(C(F)F)nn(C)c1F)C1CC1 | 0.0 |
| COc1ccsc1-c1ccccc1CN(C(=O)c1c(C(F)F)nn(C)c1F)C1CC1 | 1.0 |
| Cn1cc(C(=O)N(Cc2ccccc2-c2ccsc2)C2CC2)c(C(F)F)n1 | 1.0 |
| Cn1nc(C(F)F)c(C(=O)N(Cc2ccccc2-c2ccc(Cl)s2)C2CC2)c1F | 0.0 |
| Cc1ccc(-c2ccsc2Cl)c(CN(C(=O)c2cn(C)nc2C(F)F)C2CC2)c1 | 1.0 |
| Cn1nc(C(F)F)c(C(=O)N(Cc2ccccc2C23CCCCC2O3)C2CC2)c1F (centres unmarked) | 1.0 |
| Cc1cc(C(=O)N(Cc2cc(-c3ccsc3)ccc2Cl)C2CC2)c(C)o1 | 0.0 |
| Cc1ccc(-c2cnn(C)c2)c(CN(C(=O)c2cn(C)nc2C(F)F)[C@@H]2C[C@H]2C)c1 (relative stereo) | 1.0 |
| Cn1nc(C(F)F)c(C(=O)N(Cc2ccc(Cl)cc2-c2csc3ccccc23)C2CC2)c1F | 0.0 |
| Cn1nc(C(F)F)c(C(=O)N(Cc2cc(F)ccc2C2(C)CO2)C2CC2)c1F (centres unmarked) | 1.0 |
| Cc1ccc(-c2ccn(C)c2)c(CN(C(=O)c2c(C(F)F)nn(C)c2Cl)C2CC2)c1 | 1.0 |
| Cn1cc(C(=O)N(Cc2ccccc2-c2ccc(Cl)s2)C2CC2)c(C(F)F)n1 | 1.0 |
| CC1OCC1c1ccccc1CN(C(=O)c1c(C(F)F)nn(C)c1Cl)C1CC1 (centres unmarked) | 1.0 |
| Cn1nc(C(F)F)c(C(=O)N(Cc2cc(Cl)ccc2-c2coc3ccccc23)C2CC2)c1F | 0.0 |
| Cc1nn(C)c(C)c1-c1ccccc1CN(C(=O)c1c(C(F)F)nn(C)c1F)C1CC1 | 1.0 |
| Cn1nc(C(F)F)c(C(=S)N(Cc2ccccc2-c2ccsc2)C2CC2)c1Cl | 0.0 |
| Cc1ccc(-c2cnn(C)c2)c(CN(C(=O)c2c(C(F)F)nn(C)c2F)[C@@H]2C[C@H]2C)c1 (relative stereo) | 1.0 |
| Cn1cc(C(=O)N(Cc2cc(Cl)ccc2-c2cccs2)C2CC2)c(C(F)F)n1 | 1.0 |
| Cc1nn(C)c(C)c1-c1ccc(Cl)cc1CN(C(=O)c1c(C(F)F)nn(C)c1F)C1CC1 | 1.0 |
| Cn1nc(C(F)F)c(C(=O)N(Cc2ccccc2-c2cccs2)C2CC2)c1F | 1.0 |
| Cn1nc(C(F)F)c(C(=O)N(Cc2ccccc2-c2ccco2)C2CC2)c1F | 1.0 |
| CC(C)c1ccc(-c2coc3ccccc23)cc1CN(C(=O)c1c(C(F)F)nn(C)c1F)C1CC1 | 0.0 |
| COc1ccsc1-c1ccc(C)cc1CN(C(=O)c1c(C(F)F)nn(C)c1Cl)C1CC1C (centres unmarked) | 0.0 |
| Cn1nc(C(F)F)c(C(=O)N(Cc2ccccc2-c2ccsc2)C2CC2)c1Cl | 1.0 |
| Cn1nc(C(F)F)c(C(=O)N(Cc2ccccc2-c2ccsc2)C2CC2)c1F | 1.0 |
| Cc1ccc(-c2coc3ccccc23)c(CN(C(=O)c2c(C(F)F)nn(C)c2Cl)C2CC2)c1 | 0.0 |
